Values were extracted from paper PMC5540273.

Form field: %Inh (one value per entry).
# Tested on: MET;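 note: KINOMEscan kinase panel screen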
# experimental_setup: concentration: 1 μM, replicates: in singlicate; n = 1
# unit: % | format: bare number

Worked cases, answers included:
Cl.O=C(Nc1ccc(Oc2ccc3[nH]c(NC(=O)c4ccco4)nc3c2)cc1)Nc1cc(C(F)(F)F)ccc1F | 83
CC(C)c1nc(-c2cccc(NS(=O)(=O)c3c(F)cccc3F)c2)c(-c2ccnc(Nc3ccc(N4CCOCC4)nc3)n2)s1.Cl | 42
Nc1ncnc2scc(-c3ccc(NC(=O)Cc4cc(F)ccc4F)cc3)c12.O=C(O)C(F)(F)F | 0
Cc1ccc(C)c(NC(=O)Nc2ccc(C)c(-c3ccc(C(=O)Nc4ccncc4)cc3)c2)c1 | 0
O=C1NC(=O)C(c2ccccc2Cl)=C1Nc1cccc(Cl)c1 | 0

query: I would be grateful if you could share the reported %Inh for `CN(c1ccc(NC(=O)Nc2cccc(Cl)c2)cc1)c1ccnc(N)n1.Cl` .
result: 1

query: What %Inh value was documented for this molecule, `Nc1cccc(-c2ccc3c(N)n[nH]c3c2)c1` ?
result: 6

query: Return reported %Inh; argument: `COC(=O)Nc1nc2ccc(Oc3ccc(NC(=O)Nc4cc(C(F)(F)F)ccc4F)cc3)cc2[nH]1.Cl`
result: 88
